Entry source: PubChem BioAssay (NCI)

# Test system: K-562 leukemia
# Test Summary: NCI-60 one-dose screen, 48 h
# Measurement Conditions: 10 µM
The panel holds about 83,000 compounds, 20% with a hit somewhere; the sample as a whole holds those more often. Activity calls are given as the source filed them. How the source made its calls: active means growth percent below 10; inactive means the rest.
Permitted responses: active, inactive

Record request — test call for Cc1ccc(-c2cc(C(=O)N=Nc3c(O)[nH]c4ccc(Br)cc34)c3ccccc3n2)cc1
inactive

Record request — test call for COc1cc(/C=C/C(=O)c2ccc(NC(=O)CN3C(=O)NC(C)(c4ccccc4)C3=O)cc2)cc(OC)c1OC (centres undefined)
inactive

Record request — test call for CC(C)(C)Nc1nc2cc(Cl)c(Cl)cc2nc1S(C)(=O)=O
active

Record request — test call for CCNCCCn1c2c(c3cc(OC)c(OC)cc3c1=O)C(=O)c1cc3c(nc1-2)OCO3
active

Record request — test call for CCCCCCCCCCCCCCCCCCCC(=O)NCCc1c[nH]c2ccc(OC(=O)CCCC(=O)OCCOOCCOOCCOOCCOOCCOOCCOOCCOOCCOOCCOOCCOOCCOOCCOC)cc12
active

Record request — test call for CCOP(=O)(OCC)O[C@H]1CC[C@]2(C)[C@H]3CC[C@@H]4[C@@H]([C@](C)(O)CCC=C(C)C)CC[C@@]4(C)[C@]3(C)CC[C@H]2C1(C)C
inactive

Record request — test call for CN1CCCN(Cc2ccc(C(=O)Nc3cccc(Nc4ccc5c(O)cccc5n4)c3)cc2C(F)(F)F)CC1
inactive

Record request — test call for O=C(c1ccc(O)cc1)C1[C@H](c2ccccc2Br)[C@@H](c2ccccc2)NC12C(=O)Nc1ccc(Cl)cc12 (some centres undefined)
active

Record request — test call for Nc1cc(-c2cccc(C(=O)NCc3ccc4c(c3)OCO4)c2)ccn1
inactive

Record request — test call for COc1ccc2[nH]cc(/C=N/Nc3ccc(Br)cn3)c2c1
active

Record request — test call for COc1ccc2nc(Cl)c(-c3cc(-c4ccccc4)nc(N)n3)cc2c1
active

Record request — test call for O=c1c2ccccc2nc(COc2ccccc2)n1/N=C/c1ccc(F)cc1
inactive

Record request — test call for CC(=O)c1ccc(Nc2nc(SC(C)C)nc(-c3ccccc3)c2C#N)cc1
inactive

Record request — test call for CC(=O)NS(=O)(=O)c1ccc(NC(=O)CSC2=NC(c3ccccc3)C(C(C)=O)=C(C)N2)cc1 (centres undefined)
inactive

Record request — test call for CO[C@H]1CSS[C@@H]1Cn1nc(-c2ccc(Oc3ccccc3)cc2)c2c(N)ncnc21
active

Record request — test call for Cn1cc(-c2cc(N)n3nc(-c4c[nH]c5ccc(Br)cc45)cc3n2)c2cccnc21
active

Record request — test call for O=C(CNc1nc(-c2ccccc2)cs1)Nc1ccc(Cl)cc1[N+](=O)[O-]
active

Record request — test call for COc1ccc(C(=O)NC(=S)N2CCN(c3ncnc4c3cnn4-c3ccccc3)CC2)cc1
inactive

Record request — test call for CONC[C@]1(C)C=C2C(=O)[C@](C)(O)C3(CC3)C(C)=C2[C@H]1O
active
